System: P. aeruginosa ATCC 27853
PROCEDURE DETAILS: Broth microdilution MIC in CAMHB
Assay type: cell-based
APPLIED CONDITIONS: Pseudomonas aeruginosa, ATCC27853; MHB; read-out: Minimum Inhibitory Concentration, P. aeruginosa ATCC 27853
QUANTITY NAME: MIC

* CCN1CCN(C(=O)NC(C(=O)N[C@H]2Cc3cccc(C(=O)O)c3OB2O)c2cccc(NC(=O)c3ccc(O)c(O)c3Cl)c2)C(=O)C1=O (stereo partly drawn) | 2 to 4 µg/mL
* C[C@H]1CN(CCN)C(=O)C(=O)N1C(=O)N[C@@H](C(=O)N[C@H]1Cc2cccc(C(=O)O)c2OB1O)c1ccc(O)c(F)c1F | > 128 µg/mL
* NC1(CN2CCN(C(=O)N[C@@H](C(=O)N[C@H]3Cc4cccc(C(=O)O)c4OB3O)c3ccc(O)c(F)c3F)C(=O)C2=O)CC1 (single isomer, unassigned) | > 128 µg/mL
* CCN1CCN(C(=O)NC(C(=O)N[C@H]2Cc3cccc(C(=O)O)c3OB2O)c2cc(F)c(O)c(F)c2F)C(=O)C1=O (stereo partly drawn) | > 128 µg/mL
* CCN1CCN(C(=O)NC(C(=O)N[C@H]2Cc3cccc(C(=O)O)c3OB2O)c2ccc(O)c(NS(C)(=O)=O)c2)C(=O)C1=O (stereo partly drawn) | > 128 µg/mL
* CCN1CCN(C(=O)NC(C(=O)N[C@H]2Cc3cccc(C(=O)O)c3OB2O)c2cccc(CN)c2)C(=O)C1=O (stereo partly drawn) | > 128 µg/mL
* NCCN1CCN(C(=O)N[C@@H](C(=O)N[C@H]2Cc3cccc(C(=O)O)c3OB2O)c2c(F)cc(O)cc2F)C(=O)C1=O (single isomer, unassigned) | > 128 µg/mL
* NCCN1CCN(C(=O)N[C@@H](C(=O)N[C@H]2Cc3cccc(C(=O)O)c3OB2O)c2ccc(O)c(Cl)c2F)C(=O)C1=O (single isomer, unassigned) | 32 to 64 µg/mL
* NCCN1CCN(C(=O)N[C@@H](C(=O)N[C@H]2Cc3cccc(C(=O)O)c3OB2O)c2ccc(O)cc2Cl)C(=O)C1=O (single isomer, unassigned) | > 128 µg/mL
* NCCN1CCN(C(=O)NC(C(=O)N[C@H]2Cc3ccc(F)c(C(=O)O)c3OB2O)c2nc(N)sc2F)C(=O)C1=O (stereo partly drawn) | > 128 µg/mL
* NCCN1CCCN(C(=O)N[C@H](C(=O)N[C@H]2Cc3cccc(C(=O)O)c3OB2O)c2c(F)cc(O)cc2F)C1=O (single isomer, unassigned) | > 128 µg/mL
* C[C@H]1CN(CCF)C(=O)C(=O)N1C(=O)NC(C(=O)N[C@H]1Cc2cccc(C(=O)O)c2OB1O)c1c(F)cc(O)cc1F (stereo partly drawn) | > 128 µg/mL
